System: Rat2 fibroblasts stably transformed with v-Src/Hu c-Src fusion gene
Test: Anchorage independent Src-transformed fibroblast proliferation assay
Type: cell-based, rat
Conditions: Rattus norvegicus, Rat2, Table 3; read-out: Src Cells IC50 μM or % inhib at 10 μM (IC50 values)
# key: entry, value: IC50
ENDPOINT LABEL: IC50 (µM)

1) COc1cc(Nc2c(C#N)cnc3cc(-c4ccc(C=O)o4)sc23)c(Cl)cc1Cl	3.7
2) COCCNCc1ccc(-c2cc3ncc(C#N)c(Nc4cc(OC)c(Cl)cc4Cl)c3s2)cc1	0.829
3) COc1cc(Nc2c(C#N)cnc3cc(-c4ccc(CN(C)CCN(C)C)cc4)sc23)c(Cl)cc1Cl	1.3

----------
Test system: Rat2 fibroblasts stably transformed with v-Src/Hu c-Src fusion gene
Assay: Anchorage independent Src-transformed fibroblast proliferation assay
Format: cell-based, rat
Details: Rattus norvegicus, Rat2, read-out: Src Cells IC50 μM or % inhib at 10 μM (IC50 values), Table 3
ENDPOINT LABEL: log10 IC50 (log10 of the value in µM)

1) COc1cc(Nc2c(C#N)cnc3cc(-c4ccc(CN5CCSCC5)cc4)sc23)c(Cl)cc1Cl [Example 94]	0.74
2) CCN1CCN(Cc2ccc(-c3cc4ncc(C#N)c(Nc5cc(OC)c(Cl)cc5Cl)c4s3)cc2)CC1 [Example 70]	-0.17
3) COc1cc(Nc2c(C#N)cnc3cc(-c4ccc(N(C)C)cc4)sc23)c(Cl)cc1Cl [Example 73]	0.15
4) COc1cc(Nc2c(C#N)cnc3cc(-c4ccc(C(=O)N5CCN(C)CC5)cc4)sc23)c(Cl)cc1Cl [Example 117]	-0.41
5) COc1cc(Nc2c(C#N)cnc3cc(-c4ccc(CCN(C)C)cc4)sc23)c(Cl)cc1Cl [Example 134]	-0.30
6) COc1cc(Nc2c(C#N)cnc3cc(-c4ccsc4CN4CCN(C)CC4)sc23)c(Cl)cc1Cl [Example 84]	0.52
7) COc1cc(Nc2c(C#N)cnc3cc(-c4csc(CN(C)C)c4)sc23)c(Cl)cc1Cl [Example 80]	-0.10

----------
A collection of compounds and their measured pIC50
Biological target: Recombinant human Src enzyme (Homo sapiens, UniProt P12931)
Sequence (P12931 whole entry): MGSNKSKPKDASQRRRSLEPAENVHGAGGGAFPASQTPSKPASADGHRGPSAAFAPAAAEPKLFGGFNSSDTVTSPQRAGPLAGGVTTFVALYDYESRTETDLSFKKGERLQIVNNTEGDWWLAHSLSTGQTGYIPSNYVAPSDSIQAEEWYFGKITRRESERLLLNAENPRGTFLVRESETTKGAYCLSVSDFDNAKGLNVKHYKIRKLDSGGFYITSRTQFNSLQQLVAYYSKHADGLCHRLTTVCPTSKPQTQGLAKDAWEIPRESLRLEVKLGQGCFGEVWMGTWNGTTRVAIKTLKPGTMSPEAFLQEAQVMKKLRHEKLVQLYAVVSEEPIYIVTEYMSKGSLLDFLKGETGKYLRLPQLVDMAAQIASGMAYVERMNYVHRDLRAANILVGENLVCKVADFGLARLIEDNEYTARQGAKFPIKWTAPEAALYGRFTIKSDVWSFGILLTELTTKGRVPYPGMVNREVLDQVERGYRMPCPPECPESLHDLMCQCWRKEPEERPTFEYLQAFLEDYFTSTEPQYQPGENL
Assay: Src kinase assay (LANCE FRET)
Settings: Table 3; 100 μM ATP, biotinylated Cdk1 peptide substrate
pIC50: −log10 of the molar value.
ENDPOINT LABEL: pIC50

1) COc1cc(Nc2c(C#N)cnc3c(-c4ccc(CN5CCOCC5)cc4)csc23)c(Cl)cc1Cl	< 5.00
2) COc1cc(Nc2c(C#N)cnc3cc(-c4ccc(CN5CCS(=O)(=O)CC5)cc4)sc23)c(Cl)cc1Cl	7.80
3) COc1cc(Nc2c(C#N)cnc3c(-c4ccc(CN5CCN(C)CC5)cc4)csc23)c(Cl)cc1Cl	< 5.00

----------
Molecular target: Rat2 fibroblasts stably transformed with v-Src/Hu Lck fusion gene (Homo sapiens, UniProt P06239, cells depend on it, form not given)
Construct: Candidates are e.g. Schmidt-Ruppin A (P00524) or Prague C (P00526); The human Lck catalytic domain stands in place of the v-Src catalytic domain
Sequence (P06239 whole entry, change not shown, the tested form may be a part): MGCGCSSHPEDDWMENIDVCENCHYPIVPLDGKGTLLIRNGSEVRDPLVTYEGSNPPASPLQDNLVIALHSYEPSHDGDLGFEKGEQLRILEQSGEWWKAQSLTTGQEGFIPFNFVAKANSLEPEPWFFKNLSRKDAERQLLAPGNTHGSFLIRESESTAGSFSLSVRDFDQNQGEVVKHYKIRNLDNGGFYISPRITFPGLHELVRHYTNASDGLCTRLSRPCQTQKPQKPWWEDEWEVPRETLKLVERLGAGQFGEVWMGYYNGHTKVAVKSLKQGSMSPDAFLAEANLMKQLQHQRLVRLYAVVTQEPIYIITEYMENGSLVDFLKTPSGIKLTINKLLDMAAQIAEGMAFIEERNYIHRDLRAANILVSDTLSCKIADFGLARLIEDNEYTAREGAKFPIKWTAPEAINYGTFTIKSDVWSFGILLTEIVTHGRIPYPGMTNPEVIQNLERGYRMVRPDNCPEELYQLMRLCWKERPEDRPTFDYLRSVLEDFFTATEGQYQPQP
Experiment: Anchorage independent Lck-transformed fibroblast proliferation assay
Assay type: cell-based, rat
Conditions: Table 3; read-out: Lck Cells IC50
ENDPOINT LABEL: GI50 (µM)

1. COc1cc(Nc2c(C#N)cnc3cc(-c4ccc(CN(C)CCCN(C)C)cc4)sc23)c(Cl)cc1Cl	0.5
2. COc1cc(Nc2c(C#N)cnc3cc(-c4ccc(N5CCOCC5)nc4)sc23)c(Cl)cc1Cl	4.5
